- assayOverview: Mycobacterium tuberculosis growth inhibition, primary screen (AID 1259343)
- appliedConditions: at 10 µM
About 2,900 (47%) of roughly 6,200 compounds were called active. Cut-off read from the data, not from the text of the source: active = inhibition above about 50%; inactive = the rest. So high a share suggests a set chosen from earlier hits. This is one part of the list.
Classes to choose from: 1 (yes) (active), 0 (no) (inactive)

Cc1cccc(-c2nnc(C(C)Oc3ccccc3C#N)o2)c1 (stereo not given) ... 0 (no)

--- query ---
How did this test come out for CN(C)c1cccc(-c2nc3cc(N)ccc3o2)c1 ?
0 (no)

---

- assayOverview: Mycobacterium tuberculosis growth inhibition, primary screen (AID 1259343)
- appliedConditions: at 10 µM
Among all 6,200 compounds or so, about 2,900 (47%) were called active. Rule as the data show it: active = inhibition above about 50%; inactive = the rest. So high a share suggests a set chosen from earlier hits. The list shows a part of the results.
Valid outcomes are listed here; reply with one: active, inactive

Example entries begin here.
COc1ccc(C2Oc3ccccc3C3CC(c4ccccc4)=NN32)cc1OC (stereo not drawn) ... inactive
O=c1[nH]cc(F)c(=O)[nH]1 ... active

Just curious, what result did CC1(C)C2CC=C(C=NNC(=O)NC3CCCCC3)C1C2 (stereo not drawn) get here?
inactive

Assay outcome for CN(C)C(=O)On1nnc2ccccc21 : what was it?
inactive

Entry Cc1ccc(N2C(=O)N(CCOc3cccc(Br)c3)C(=O)C2C)cc1 (stereo not drawn) : call = ?
inactive

State the result this test recorded for CC(C)C1Oc2ccccc2C2CC(c3ccccc3)=NN21 (stereo not drawn) .
active
